All figures here come from patent US20250230129A1.

# measurementTarget: UniProtKB P41145
# assayInfo: Competitive Kappa receptor binding assay (3H-U69593)
# runParameters: CHO-K1-Kappa membranes, 3H-U69593 2 nM; read-out: κ receptor Ki
readoutLabel: pKi
pKi is a log-scale quantity: -log10 of the concentration expressed in molar.

**Query** Give its pKi value. Item: CNS(=O)(=O)NC1CCN(C(=O)[C@@H](CCCCN)NC(=O)[C@@H](CC(C)C)NC(=O)[C@@H](Cc2ccccc2)NC(=O)N(CCN)Cc2ccccc2)CC1
**Result** 9.51

**Query** Give its pKi value. Item: CC(C)C[C@@H](NC(=O)[C@@H](Cc1ccccc1)NC(=O)N(CCN)Cc1ccccc1)C(=O)N[C@H](CCCCN)C(=O)N1CCC2(CC1)OC(=O)Nc1ncccc12
**Result** 9.46
